system: NCI/ADR-RES ovarian; assay: NCI-60 one-dose screen, 48 h (100 = growth as untreated, 0 = no growth, -100 = all killed); conditions: 10 µM
Compounds without any hit were thinned out: in the full panel of roughly 83,000, 20% have a hit. Active and inactive are the calls of the source. Rule for the calls: active = growth percent below 10; inactive = the rest. Where a SMILES comes first, the peptide text is derived from it. Bridges are numbered along the chain shown (N, C = ends). [ ]: non-standard residue; d: D form. The star is where a group is joined. ξ: configuration not given here. ξNMePhe(4-NMe2) = CNC(Cc1ccc(N(C)C)cc1)C(=O)O; Picolinoyl(3-OH) = O=C(c1ncccc1O)*; ξPip(4-oxo) = O=C1CCNC(C(=O)O)C1; Phg = N[CH](C(=O)O)c1ccccc1; Abu = CC[CH](N)C(=O)O
Each record here notes measured growth.

Below, each entry is followed by its recorded growth result.
CCN=c1cc2sc3cc(NCC)c(C)cc3nc-2cc1C :: 19.9% (inactive)
S=C(Nc1ccccc1)N1CCCCC1 :: 107% (inactive)

Let us examine a further case.
Asked: Which growth reading was recorded for the compound CCC1NC(=O)C(NC(=O)c2ncccc2O)C(C)OC(=O)C(c2ccccc2)NC(=O)C2CC(=O)CCN2C(=O)C(Cc2ccc(N(C)C)cc2)N(C)C(=O)C2CCCN2C1=O (stereo not drawn) (tested in a mixture with another compound) ({Picolinoyl(3-OH)}-T[Abu]P[ξNMePhe(4-NMe2)][ξPip(4-oxo)][Phg]; ester 1-C; configuration not given here) ?
Given back: 179% (inactive)

---

test system: OVCAR-3 ovarian; assay: NCI-60 one-dose screen, 48 h (100 = growth as untreated, 0 = no growth, -100 = all killed); details: 10 µM
About 83,000 compounds went through this panel and 20% of them were active in at least one assay; those are over-represented in the sample as a whole.
attributeMeasured: growth (%)
Form entry: value (%) — number only.

Asked: Which growth reading was recorded for the compound CC(=O)CC(=O)N(C)C ?
Given back: 112

Asked: Which growth reading was recorded for the compound COc1ccc(OC)c(/C=C2\CCc3ccccc3C2=O)c1 ?
Given back: 9.47

Asked: Which growth reading was recorded for the compound Cc1nc2ccccc2c(C(=O)O)c1O ?
Given back: 113

Asked: Which growth reading was recorded for the compound CC(C)NC(=O)OCc1c(COC(=O)NC(C)C)c(-c2ccc(Cl)c(Cl)c2)n2c1SCC2 ?
Given back: 47.2

Asked: Which growth reading was recorded for the compound C=CCNC(=O)c1ccc(OC)cc1 ?
Given back: 121

Asked: Which growth reading was recorded for the compound CCOC(=O)C1=C(C)NC(=O)NC1c1cccs1 (configuration not stated) ?
Given back: 118

Asked: Which growth reading was recorded for the compound CC(=O)NCc1cc(C)c(C)cc1C ?
Given back: 101

Asked: Which growth reading was recorded for the compound COc1cc2c(cc1O)CC[C@@H]1C2CC[C@@]2(C)C1CC[C@@H]2O (some centres not stated) ?
Given back: 4.72

Asked: Which growth reading was recorded for the compound O=[N+]([O-])c1cccc(C(F)(F)F)c1 ?
Given back: 117

Asked: Which growth reading was recorded for the compound Oc1ccccc1O ?
Given back: 92.3

Asked: Which growth reading was recorded for the compound O=[N+]([O-])c1ccc(S(=O)(=O)NN=C2CCCCC2)cc1 ?
Given back: 114

Asked: Which growth reading was recorded for the compound O=[N+]([O-])c1cccc2nsnc12 ?
Given back: 107

Asked: Which growth reading was recorded for the compound CCOC(=O)c1coc(C(=O)OCC)c1C(=O)OCC ?
Given back: 111

Asked: Which growth reading was recorded for the compound CC(=Nc1ccccc1)C1=C(O)C(Cc2cccc(F)c2)NC1=O (configuration not stated) ?
Given back: -36.1

Asked: Which growth reading was recorded for the compound CN(C)c1ccc2nc3ccc(=N)cc-3sc2c1 ?
Given back: 6.65

Asked: Which growth reading was recorded for the compound CCCCNC(=O)C(=O)NCCCC ?
Given back: 108

Asked: Which growth reading was recorded for the compound O=c1[nH]c(O)c(/C=C2/C=Nc3ccccc32)[nH]1 ?
Given back: 100

Asked: Which growth reading was recorded for the compound CC1SC(N)=NC1=O (configuration not stated) ?
Given back: 116

---

test system: KM12 colon; assay: NCI-60 one-dose screen, 48 h (100 = growth as untreated, 0 = no growth, -100 = all killed); conditions: 10 µM
About 83,000 compounds went through this panel and 20% of them were active in at least one assay; those are over-represented in the sample as a whole.
Each record here notes measured growth.
Form entry: value (%) — number only.

CC(C)=NNC(N)=S :: 94.9
CCN(CC)CCNc1ccc(CO)c2sc3ccccc3c(=O)c12 :: 42.5
CCOc1ccccc1/C=N/Nc1nc2ccccc2o1 :: 86.4
CCOC(=O)c1[nH]c(C)c(C(C)=O)c1C :: 98.3

Asked: What is its growth for KM12 colon? Entry: COc1ccc2c(c1)CCc1c-2n[nH]c1-c1[nH]nc2c1CCc1cc(OC)ccc1-2
Given back: 47.6

Asked: What is its growth for KM12 colon? Entry: COc1cc2c3cc1Oc1c(OC)c(OC)cc4c1C(Cc1ccc(O)c(c1)Oc1ccc(cc1)CC3N(C)CC2)N(C)CC4 (configuration not stated)
Given back: 12.9

Asked: What is its growth for KM12 colon? Entry: O=C(Cc1nc2ccc([N+](=O)[O-])cc2nc1CC(=O)c1cccnc1)c1cccnc1
Given back: 63.1

Asked: What is its growth for KM12 colon? Entry: CCCCC1(CC)COC(CCC)OC1 (configuration not stated)
Given back: 104

Asked: What is its growth for KM12 colon? Entry: S=c1sc2ccccc2n1CN1CCCCC1
Given back: 98.4

Asked: What is its growth for KM12 colon? Entry: COc1cccc(Sc2ccc([N+](=O)[O-])c3no[n+]([O-])c23)c1
Given back: 92.3

Asked: What is its growth for KM12 colon? Entry: OCCN1CCOCC1
Given back: 111

Asked: What is its growth for KM12 colon? Entry: Cc1cc(C(O)(c2ccc(Nc3ccccc3)cc2)c2ccc(Nc3ccc(S(=O)(=O)O)cc3)cc2)ccc1N (configuration not stated)
Given back: 4.39

---

Each record here notes measured growth.
test system: NCI-H226 lung; assay: NCI-60 one-dose screen, 48 h (100 = growth as untreated, 0 = no growth, -100 = all killed); conditions: 10 µM
About 83,000 compounds went through this panel and 20% of them were active in at least one assay; those are over-represented in the sample as a whole.
Form entry: value (%) — number only.

Asked: Which growth reading was recorded for the compound COc1cccc(O)c1O ?
Given back: 101

Asked: Which growth reading was recorded for the compound Cc1cc(C)c(CC(=O)O)c(C)c1 ?
Given back: 99.8

Asked: Which growth reading was recorded for the compound CCCCNC1(C#N)CCN(Cc2ccccc2)CC1 ?
Given back: 104

Asked: Which growth reading was recorded for the compound O=c1cc(-c2ccccc2)oc2c1ccc1ccccc12 ?
Given back: 86.3

Asked: Which growth reading was recorded for the compound CC1NC(=O)NC1CCCCCC(=O)O (centres undefined) ?
Given back: 103

Asked: Which growth reading was recorded for the compound COc1ccc(/C(C#N)=C2C=C/C(=N/O)c3ccccc3\2)cc1 ?
Given back: 36

Asked: Which growth reading was recorded for the compound CC(=O)OCC1OC(OC2=C(CC=C(C)C)C(=O)c3ccccc3C2=O)C(OC(C)=O)C(OC(C)=O)C1OC(C)=O (centres undefined) ?
Given back: 57.1

---

test system: SN12C renal; test: NCI-60 one-dose screen, 48 h (100 = growth as untreated, 0 = no growth, -100 = all killed); conditions: 10 µM
About 83,000 compounds went through this panel and 20% of them were active in at least one assay; those are over-represented in the sample as a whole.
attributeMeasured: growth (%)
Form entry: value (%) — number only.

CCOc1ccc(/C=N/N=C(N)N)cc1OCC :: 108
CCCC(=O)Nc1ccc2c(c1)CN1C(=O)c3ccccc3C1=N2 :: 100
O=C(c1ccc(Cl)cc1)c1ccccc1Cl :: 94.7
O=[N+]([O-])c1ccc(/C=C/C=C/c2ccccc2)c(Cl)c1 :: 98.3
O=[N+]([O-])c1ccc(S(=O)(=O)NN=C2CCCCC2)cc1 :: 103

Asked: Which growth reading was recorded for the compound Cc1ccc(C(=O)c2ccccc2)c(C)c1 ?
Given back: 99.2

Asked: Which growth reading was recorded for the compound COc1cc(/C=C/C(=O)c2ccccc2)cc(OC)c1OC ?
Given back: 53.3

---

test system: OVCAR-5 ovarian; test: NCI-60 one-dose screen, 48 h (100 = growth as untreated, 0 = no growth, -100 = all killed); details: 10 µM
Compounds without any hit were thinned out: in the full panel of roughly 83,000, 20% have a hit.
attributeMeasured: growth (%)
Form entry: value (%) — number only.

Asked: Which growth reading was recorded for the molecule O=C(N/N=C\c1cc(Br)cc(Br)c1O)N/N=C/c1cc(Br)cc(Br)c1O ?
Given back: 64.6

Asked: Which growth reading was recorded for the molecule S=c1[nH]ccn1-c1ccccc1Cl ?
Given back: 114

Asked: Which growth reading was recorded for the molecule CN(C)c1ccc(CNC(C(=O)c2ccccc2)c2ccccc2)cc1 (centres undefined) ?
Given back: 110

Asked: Which growth reading was recorded for the molecule NC(=O)c1ccc(N=C(N)N=C(N)N)cc1 ?
Given back: 97.8

Asked: Which growth reading was recorded for the molecule C/C(=C\c1cc(Cl)ccc1OCC(=O)O)[N+](=O)[O-] ?
Given back: 106

Asked: Which growth reading was recorded for the molecule O=S(=O)(O)c1ccc(O)c2ccccc12 ?
Given back: 98.7

Asked: Which growth reading was recorded for the molecule CCCCCCCCCCCCCC(=O)Oc1ccc[nH]c1=O ?
Given back: 97.1

Asked: Which growth reading was recorded for the molecule O=S(=O)(O)c1ccc(Cl)c(Cl)c1 ?
Given back: 112

Asked: Which growth reading was recorded for the molecule O=C(/C=C/C(=O)c1ccccc1)c1ccccc1 ?
Given back: 115

Asked: Which growth reading was recorded for the molecule COC(=O)C(O)c1ccccc1 (centres undefined) ?
Given back: 97.6

Asked: Which growth reading was recorded for the molecule CC1(C)/C(=C\CO)C2CCC1C2 (centres undefined) ?
Given back: 105

Asked: Which growth reading was recorded for the molecule NC(=S)N/N=C/c1ccc(N)cc1 ?
Given back: 108

Asked: Which growth reading was recorded for the molecule COc1cc(/C=C/C(=O)c2ccccc2)cc(OC)c1OC ?
Given back: 66.6

Asked: Which growth reading was recorded for the molecule OCC1OC(OC2C(O)C(CO)OC2(CO)OC2OC(CO)C(O)C(O)C2O)C(O)C(O)C1O (centres undefined) ?
Given back: 107

Asked: Which growth reading was recorded for the molecule O=c1[nH]nc(SC2CCCCC2)c(=O)[nH]1 ?
Given back: 99

Asked: Which growth reading was recorded for the molecule CCS(=O)(=O)CCCl ?
Given back: 105

Asked: Which growth reading was recorded for the molecule COc1ccc(-c2cc3c(nn2)-c2ccccc2C3=O)cc1 ?
Given back: 83.7

Asked: Which growth reading was recorded for the molecule CCOc1ccc2[nH]c(=S)sc2c1 ?
Given back: 97.6

Asked: Which growth reading was recorded for the molecule Cc1cc(C)cc(NCCC#N)c1 ?
Given back: 112

Asked: Which growth reading was recorded for the molecule COc1nc(N)nc2c1ncn2C1OC(CO)CC1O (centres undefined) ?
Given back: 100

Asked: Which growth reading was recorded for the molecule Cc1c(O)cccc1O ?
Given back: 106
